Test system: OVCAR-5 ovarian
Test: NCI-60 one-dose screen, 48 h (100 = growth as untreated, 0 = no growth, -100 = all killed)
Settings: 10 µM unless noted
This is part of a sample that, as a whole, favours compounds with a hit. Of some 83,000 tested, about 20% had one in any assay.
Mark 1 only for growth values smaller than 70%; exact matches and larger values are 0.

# compound, test-system, label
rows = [
    ("O=C(Nc1ccc(Br)cc1)Nc1nc2ccc([N+](=O)[O-])cc2s1", "OVCAR-5 ovarian", 1),
    ("COc1cc(-c2ccc3ncnc(NCc4ccccc4)c3c2)cnc1OC", "OVCAR-5 ovarian", 1),
    ("O=C(NCCN1CCCC1)c1ccc(-c2nc3ccc4[nH]ncc4c3c3c2CCCC3)cc1", "OVCAR-5 ovarian", 1),
    ("Cc1cc(C(NC(=O)CCCCCNc2cccc3c2C(=O)N(C2CCC(=O)NC2=O)C3=O)c2ccc3c(c2)OC(F)(F)O3)c(O)c2ncccc12 (centres undefined)", "OVCAR-5 ovarian", 0),
    ("COC(=O)C(Cc1ccccc1)Nc1nc(NC(Cc2ccccc2)C(=O)OC)nc(N2CCOCC2)n1 (centres undefined)", "OVCAR-5 ovarian", 0),
    ("O=S(=O)(NCCCNc1nccc(-n2cnc3ccccc32)n1)c1ccc(C(F)(F)F)cc1", "OVCAR-5 ovarian", 0),
]

Q. Would you kindly verify if growth of `CC(=O)c1ccc(Nc2nc(SCC(C)C)nc(-c3ccc(F)cc3)c2C#N)cc1` is strictly less than 70%?
A. 0

Q. Would you kindly verify if growth of COc1cc2nc(Cl)nc(Nc3cccc(C4=Nc5c(N)nc(N)nc5NC(c5ccccc5)C4)c3)c2cc1OC (centres undefined) is strictly less than 70%?
A. 0

Q. Would you kindly verify if growth of `O=C(O)c1ccc(-n2cc(CNc3cc(F)c(F)c(F)c3)c(-c3cccc(F)c3)n2)cc1` is strictly less than 70%?
A. 0
